- assayProcedure: Microsomal stability assay, mouse liver microsomes
- conditionContext: 60 min
endpoint: Microsomal Stability (mouse) % rem. 60 min

substancesmiles=O=C(N[C@H]1CC[C@@H](Oc2nc(N3CCOCC3)cc3ncccc23)CC1)c1ncccn1 measuredvalue="G (% remaining = 50-75%)"
substancesmiles=O=C(N[C@H]1CC[C@@H](Oc2nc(N3CCOCC3)cc3ncccc23)CC1)c1ccco1 measuredvalue="E (% remaining = 0-25%)"
substancesmiles=c1cnc2cc(N3CCOCC3)nc(O[C@H]3CC[C@@H](Nc4cnccn4)CC3)c2c1 measuredvalue="E (% remaining = 0-25%)"
substancesmiles=O=C(N[C@H]1CC[C@@H](Oc2nc(N3CCOCC3)cc3ncccc23)CC1)c1cncs1 measuredvalue="G (% remaining = 50-75%)"
substancesmiles=O=C(N[C@H]1CC[C@@H](Oc2nc(N3CCOCC3)cc3ncccc23)CC1)c1cc[nH]n1 measuredvalue="E (% remaining = 0-25%)"
